biological target: human Fatty Acid Synthase (Homo sapiens, UniProt P49327); construct: made in house; test: Human FAS enzyme assay (decrease in NADPH fluorescence); assay type: biochemical; details: % inhibition at a concentration of 100 micromolar
Sequence (P49327 whole entry): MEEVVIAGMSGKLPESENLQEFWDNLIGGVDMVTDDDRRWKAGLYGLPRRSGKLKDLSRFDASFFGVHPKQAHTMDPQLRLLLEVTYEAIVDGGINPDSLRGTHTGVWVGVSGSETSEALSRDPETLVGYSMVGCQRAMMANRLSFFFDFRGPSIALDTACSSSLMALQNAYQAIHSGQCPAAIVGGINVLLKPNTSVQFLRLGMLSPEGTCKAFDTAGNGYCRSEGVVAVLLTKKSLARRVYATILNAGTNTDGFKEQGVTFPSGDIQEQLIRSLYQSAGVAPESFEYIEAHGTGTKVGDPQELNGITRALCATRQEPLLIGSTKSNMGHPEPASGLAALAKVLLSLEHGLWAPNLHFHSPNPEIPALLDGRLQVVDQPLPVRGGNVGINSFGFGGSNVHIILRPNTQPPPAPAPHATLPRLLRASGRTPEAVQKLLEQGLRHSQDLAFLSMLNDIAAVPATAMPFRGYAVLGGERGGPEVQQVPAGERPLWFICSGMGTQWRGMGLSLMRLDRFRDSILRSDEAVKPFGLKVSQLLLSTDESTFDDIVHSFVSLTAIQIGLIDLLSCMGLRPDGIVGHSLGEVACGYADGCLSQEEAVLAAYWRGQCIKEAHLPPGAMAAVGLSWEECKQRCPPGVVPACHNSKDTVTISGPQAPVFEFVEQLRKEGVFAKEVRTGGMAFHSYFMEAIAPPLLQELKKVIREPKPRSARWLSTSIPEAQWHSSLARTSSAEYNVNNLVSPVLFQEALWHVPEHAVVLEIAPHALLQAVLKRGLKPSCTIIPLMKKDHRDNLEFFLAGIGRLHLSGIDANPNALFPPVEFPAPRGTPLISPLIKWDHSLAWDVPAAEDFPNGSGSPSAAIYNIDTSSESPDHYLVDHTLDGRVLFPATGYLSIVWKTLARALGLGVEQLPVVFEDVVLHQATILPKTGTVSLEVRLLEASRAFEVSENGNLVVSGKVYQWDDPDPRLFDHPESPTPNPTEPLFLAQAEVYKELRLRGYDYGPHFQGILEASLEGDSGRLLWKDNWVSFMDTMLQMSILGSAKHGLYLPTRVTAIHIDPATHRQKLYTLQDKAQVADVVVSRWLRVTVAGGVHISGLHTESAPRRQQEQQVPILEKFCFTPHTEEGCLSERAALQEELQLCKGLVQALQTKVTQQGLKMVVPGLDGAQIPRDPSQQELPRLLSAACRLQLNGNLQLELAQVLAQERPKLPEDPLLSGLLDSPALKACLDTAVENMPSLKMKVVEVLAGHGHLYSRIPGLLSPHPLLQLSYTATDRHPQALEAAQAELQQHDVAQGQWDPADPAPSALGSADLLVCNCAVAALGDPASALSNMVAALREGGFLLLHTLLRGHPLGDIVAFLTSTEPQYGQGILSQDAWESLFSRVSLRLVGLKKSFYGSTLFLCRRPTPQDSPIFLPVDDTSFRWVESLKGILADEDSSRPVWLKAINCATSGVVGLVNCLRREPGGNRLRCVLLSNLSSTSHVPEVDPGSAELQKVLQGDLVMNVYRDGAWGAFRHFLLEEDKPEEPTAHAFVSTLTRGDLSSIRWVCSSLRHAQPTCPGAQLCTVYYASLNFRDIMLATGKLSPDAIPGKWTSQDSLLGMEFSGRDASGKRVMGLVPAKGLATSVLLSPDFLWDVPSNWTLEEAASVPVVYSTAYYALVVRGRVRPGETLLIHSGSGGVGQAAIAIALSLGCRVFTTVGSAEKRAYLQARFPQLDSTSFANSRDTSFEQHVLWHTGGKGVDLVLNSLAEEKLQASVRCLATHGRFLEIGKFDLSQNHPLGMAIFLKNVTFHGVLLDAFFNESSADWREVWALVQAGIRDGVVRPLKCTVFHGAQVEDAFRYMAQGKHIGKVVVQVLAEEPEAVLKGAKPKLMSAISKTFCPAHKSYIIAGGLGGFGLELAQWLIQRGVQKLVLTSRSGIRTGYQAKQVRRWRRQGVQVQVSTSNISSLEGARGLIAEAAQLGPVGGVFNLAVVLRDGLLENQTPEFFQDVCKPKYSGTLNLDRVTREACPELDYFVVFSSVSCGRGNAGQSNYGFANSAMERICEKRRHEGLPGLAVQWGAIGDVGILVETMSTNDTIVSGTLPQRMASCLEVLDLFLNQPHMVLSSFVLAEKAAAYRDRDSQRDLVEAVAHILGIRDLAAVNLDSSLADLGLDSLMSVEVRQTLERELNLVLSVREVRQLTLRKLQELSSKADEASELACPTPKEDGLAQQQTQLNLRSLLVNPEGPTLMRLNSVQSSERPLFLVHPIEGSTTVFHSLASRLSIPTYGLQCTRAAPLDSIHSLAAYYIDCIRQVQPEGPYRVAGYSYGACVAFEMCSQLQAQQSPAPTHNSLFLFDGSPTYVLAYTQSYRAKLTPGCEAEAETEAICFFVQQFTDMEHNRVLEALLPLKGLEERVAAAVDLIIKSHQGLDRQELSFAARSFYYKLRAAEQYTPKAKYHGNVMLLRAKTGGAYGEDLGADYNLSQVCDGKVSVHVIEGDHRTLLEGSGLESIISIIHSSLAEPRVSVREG
Reported metric: inhibition at 100 µM (%)

- Compound: "Cc1ccc(C(=O)N2CCC(c3ccc(C#N)cc3)CC2)cc1NS(=O)(=O)c1cccc(C(=O)NC(C)C)c1 [Example 85]"
  Reported metric: "inhibition at 100 µM"
  Unit of measurement: "%"
  Recorded value: 95
- Compound: "Cc1ccc(C(=O)N2CCC(c3ccc(C#N)cc3)CC2)cc1NS(=O)(=O)c1cccc(C(=O)N2CCOCC2)c1 [Example 97]"
  Reported metric: "inhibition at 100 µM"
  Unit of measurement: "%"
  Recorded value: 88
- Compound: "COCCNc1ccc(S(=O)(=O)Nc2cc(C(=O)N3CCC(c4ccc(C#N)cc4)CC3)ccc2C)cn1 [Example 103]"
  Reported metric: "inhibition at 100 µM"
  Unit of measurement: "%"
  Recorded value: 98
- Compound: "COCCOc1ccc(C2CCN(C(=O)c3ccc(C)c(NS(C)(=O)=O)c3)CC2)cc1 [Example 219]"
  Reported metric: "inhibition at 100 µM"
  Unit of measurement: "%"
  Recorded value: 87
- Compound: "Cc1ccc(NS(=O)(=O)c2cnoc2C)cc1C(=O)N1CCC(c2ccc(C#N)cc2)CC1 [Example 39]"
  Reported metric: "inhibition at 100 µM"
  Unit of measurement: "%"
  Recorded value: 80
- Compound: "Cc1ccc(NS(=O)(=O)CC2CCCCC2)cc1C(=O)N1CCC(c2ccc(C#N)cc2)CC1 [Example 41]"
  Reported metric: "inhibition at 100 µM"
  Unit of measurement: "%"
  Recorded value: 96
- Compound: "Cc1ccc(C(=O)N2CCC(c3ccc(N(C)S(C)(=O)=O)cc3)CC2)cc1NS(C)(=O)=O [Example 230]"
  Reported metric: "inhibition at 100 µM"
  Unit of measurement: "%"
  Recorded value: 73.2
- Compound: "Cc1ccc(C(=O)N2CCC(c3ccc(C#N)cc3)CC2)cc1NS(=O)(=O)C1CCNCC1 [Example 115]"
  Reported metric: "inhibition at 100 µM"
  Unit of measurement: "%"
  Recorded value: 97
- Compound: "C[S+]([O-])c1ccc(C(=O)N2CCC(c3ccc(C#N)cc3)CC2)cc1NS(=O)(=O)Cc1ccccc1 (stereo not drawn) [Example 211]"
  Reported metric: "inhibition at 100 µM"
  Unit of measurement: "%"
  Recorded value: 92
- Compound: "CS(=O)(=O)Nc1cc(C(=O)N2CCC(c3ccc(C#N)cc3)CC2)ccc1S(C)(=O)=O [Example 210]"
  Reported metric: "inhibition at 100 µM"
  Unit of measurement: "%"
  Recorded value: 91
- Compound: "COC(=O)CS(=O)(=O)Nc1ccc(C)c(C(=O)N2CCC(c3ccc(C#N)cc3)CC2)c1 [Example 38]"
  Reported metric: "inhibition at 100 µM"
  Unit of measurement: "%"
  Recorded value: 83
- Compound: "Cc1ccc(C(=O)N2CCC(c3ccc(C#N)cc3)CC2)cc1NS(=O)(=O)c1cn(C)cn1 [Example 94]"
  Reported metric: "inhibition at 100 µM"
  Unit of measurement: "%"
  Recorded value: 86
- Compound: "COCCS(=O)(=O)Nc1cc(C(=O)N2CCC(c3ccc(C#N)cc3)CC2)ccc1C [Example 105]"
  Reported metric: "inhibition at 100 µM"
  Unit of measurement: "%"
  Recorded value: 89
- Compound: "Cc1ccc(C(=O)N2CCC(c3ccc(C#N)cc3)CC2)cc1NS(=O)(=O)C1CCN(S(C)(=O)=O)CC1 [Example 121]"
  Reported metric: "inhibition at 100 µM"
  Unit of measurement: "%"
  Recorded value: 89
- Compound: "Cc1ccc(C(=O)N2CCC(c3ccc(C#N)cc3)CC2)cc1NS(=O)(=O)c1ccccc1C(=O)NCCO [Example 207]"
  Reported metric: "inhibition at 100 µM"
  Unit of measurement: "%"
  Recorded value: 75
